The measured values listed here are drawn from patent US8829049B2.

- Tested On: phosphodiesterase 5 (PDE-5) (Homo sapiens, UniProt O76074)
- Method: activity test for the enzyme phosphodiesterase 5 (PDE-5)
- Conditions Used: PDE-5 enzyme activity; read-out: 50% effective dose (DE50)
Parameter: pEC50
Scale: pEC50 equals -log10([C]), with [C] in mol/L.

pEC50 reported for this compound OC1OC[C@H](Cc2ccc3c(c2)OCO3)[C@H]1Cc1ccc2c(c1)OCO2 (mixture of isomers) [cubebin] : 4.78
